Reference source for all entries: patent US20250163162A1

# target_entity: T1, IL10Rα/IL2Rγ receptor (human) (UniProt Q13651)
# T1 sequence (looked up) 1: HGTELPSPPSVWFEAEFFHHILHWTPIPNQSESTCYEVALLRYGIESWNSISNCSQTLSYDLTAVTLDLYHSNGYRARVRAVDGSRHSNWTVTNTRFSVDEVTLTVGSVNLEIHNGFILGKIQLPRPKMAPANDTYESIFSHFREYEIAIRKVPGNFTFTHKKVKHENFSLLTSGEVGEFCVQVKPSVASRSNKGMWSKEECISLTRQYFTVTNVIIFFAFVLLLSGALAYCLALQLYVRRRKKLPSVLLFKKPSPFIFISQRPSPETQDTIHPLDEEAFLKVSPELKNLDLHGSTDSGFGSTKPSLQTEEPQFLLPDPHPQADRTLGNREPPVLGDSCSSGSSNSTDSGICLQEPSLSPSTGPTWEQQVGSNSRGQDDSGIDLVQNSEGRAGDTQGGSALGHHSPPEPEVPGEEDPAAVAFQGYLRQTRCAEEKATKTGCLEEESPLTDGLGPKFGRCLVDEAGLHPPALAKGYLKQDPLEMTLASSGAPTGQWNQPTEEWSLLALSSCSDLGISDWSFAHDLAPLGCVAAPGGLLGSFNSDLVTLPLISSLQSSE
# T1 sequence (looked up) 2: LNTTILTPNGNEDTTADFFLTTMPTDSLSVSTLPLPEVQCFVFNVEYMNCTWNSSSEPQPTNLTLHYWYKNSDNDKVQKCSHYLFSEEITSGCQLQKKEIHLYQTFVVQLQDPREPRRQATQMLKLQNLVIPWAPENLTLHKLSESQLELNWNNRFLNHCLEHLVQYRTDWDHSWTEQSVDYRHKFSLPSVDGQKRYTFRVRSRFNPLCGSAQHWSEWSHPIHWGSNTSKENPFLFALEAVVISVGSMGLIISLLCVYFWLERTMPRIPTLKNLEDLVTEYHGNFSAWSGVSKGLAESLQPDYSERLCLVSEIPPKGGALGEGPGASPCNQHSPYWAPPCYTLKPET
# protocol: cell-based or functional assay
quantity: Granzyme A secretion, CD8 T cells, at 0 µM

binder="hIL10Ra_VHH14 - hIL2Rg_VHH19, linker GS, tag his (bispecific antibody, not shown: small tags and cut ends) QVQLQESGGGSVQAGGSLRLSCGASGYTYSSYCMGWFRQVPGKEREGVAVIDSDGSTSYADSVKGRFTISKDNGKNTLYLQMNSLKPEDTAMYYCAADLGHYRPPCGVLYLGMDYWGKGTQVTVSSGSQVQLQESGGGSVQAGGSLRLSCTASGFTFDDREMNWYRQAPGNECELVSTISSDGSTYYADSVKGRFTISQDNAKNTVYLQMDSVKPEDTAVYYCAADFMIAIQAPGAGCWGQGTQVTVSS" result="25200 pg/mL"
